- TGT: Phosphorylase b kinase gamma catalytic chain, liver/testis isoform (Homo sapiens)
- Sequence (whole entry): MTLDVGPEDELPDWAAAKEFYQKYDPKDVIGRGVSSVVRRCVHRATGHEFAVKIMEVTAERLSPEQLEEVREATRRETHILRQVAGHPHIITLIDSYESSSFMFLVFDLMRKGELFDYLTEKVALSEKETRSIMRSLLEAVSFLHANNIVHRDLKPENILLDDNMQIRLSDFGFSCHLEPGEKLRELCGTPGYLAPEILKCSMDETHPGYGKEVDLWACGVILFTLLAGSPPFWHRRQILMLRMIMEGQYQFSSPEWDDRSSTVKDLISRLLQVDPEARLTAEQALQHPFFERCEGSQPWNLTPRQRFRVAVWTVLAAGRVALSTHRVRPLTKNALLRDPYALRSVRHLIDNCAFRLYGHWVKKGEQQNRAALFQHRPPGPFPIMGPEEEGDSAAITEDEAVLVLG
- PROTOCOL CONDITIONS: at 0.1 µM;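 note: values are mean inhibition of PHKG2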
REPORTED ENDPOINT: inhibition (%)

- SMILES NOTATION: "N#Cc1cccc(Nc2ncc(-c3ccccc3)o2)c1"
  TGT: "Phosphorylase b kinase gamma catalytic chain, liver/testis isoform (Homo sapiens)"
  REPORTED ENDPOINT: "inhibition"
  MEASURED: 1.85
- SMILES NOTATION: "OCCCNc1nccc(-c2c(-c3ccc(F)cc3)nn3cc(C(F)(F)F)ccc23)n1"
  TGT: "Phosphorylase b kinase gamma catalytic chain, liver/testis isoform (Homo sapiens)"
  REPORTED ENDPOINT: "inhibition"
  MEASURED: 2.88
- SMILES NOTATION: "Cc1cc(O)cc(C)c1/C=C/c1cncc(C(=O)OC(C)(C)C)c1"
  TGT: "Phosphorylase b kinase gamma catalytic chain, liver/testis isoform (Homo sapiens)"
  REPORTED ENDPOINT: "inhibition"
  MEASURED: 3.11
- SMILES NOTATION: "COc1cc(N2CCN(C(C)C)CC2)ccc1Nc1nc(Nc2cccc(F)c2C(=O)O)c2cc[nH]c2n1"
  TGT: "Phosphorylase b kinase gamma catalytic chain, liver/testis isoform (Homo sapiens)"
  REPORTED ENDPOINT: "inhibition"
  MEASURED: 6.18
- SMILES NOTATION: "CS(=O)(=O)CCNCc1ccc(-c2ccc3ncnc(Nc4ccc(OCc5ccccc5)cc4)c3c2)o1"
  TGT: "Phosphorylase b kinase gamma catalytic chain, liver/testis isoform (Homo sapiens)"
  REPORTED ENDPOINT: "inhibition"
  MEASURED: 4.78
- SMILES NOTATION: "CNC(=O)c1ncccc1Nc1nc(Nc2cc3c(cc2OC)CCCN3C(=O)CN(C)C)nc2[nH]ccc12"
  TGT: "Phosphorylase b kinase gamma catalytic chain, liver/testis isoform (Homo sapiens)"
  REPORTED ENDPOINT: "inhibition"
  MEASURED: 5.37
- SMILES NOTATION: "COc1cc2c(cc1Nc1nc(Nc3cccc(F)c3C(N)=O)c3cc[nH]c3n1)N(C(=O)CN1CCN(C(C)C)CC1)CC2"
  TGT: "Phosphorylase b kinase gamma catalytic chain, liver/testis isoform (Homo sapiens)"
  REPORTED ENDPOINT: "inhibition"
  MEASURED: 3.29
- SMILES NOTATION: "c1cnn2ncc(-c3ccnc(NCCCN4CCOCC4)n3)c2c1"
  TGT: "Phosphorylase b kinase gamma catalytic chain, liver/testis isoform (Homo sapiens)"
  REPORTED ENDPOINT: "inhibition"
  MEASURED: 4.4
- SMILES NOTATION: "c1ccc(-c2n[nH]cc2-c2ccnc(-c3ccc(OCCn4ccnc4)cc3)c2)nc1"
  TGT: "Phosphorylase b kinase gamma catalytic chain, liver/testis isoform (Homo sapiens)"
  REPORTED ENDPOINT: "inhibition"
  MEASURED: -0.35
- SMILES NOTATION: "CC(C)c1ccc(-c2cc(-c3c[nH]nc3-c3ccccn3)ccn2)cc1"
  TGT: "Phosphorylase b kinase gamma catalytic chain, liver/testis isoform (Homo sapiens)"
  REPORTED ENDPOINT: "inhibition"
  MEASURED: -0.69
- SMILES NOTATION: "Cc1cc(O)cc(C)c1/C=C/c1cncc(C(N)=O)c1"
  TGT: "Phosphorylase b kinase gamma catalytic chain, liver/testis isoform (Homo sapiens)"
  REPORTED ENDPOINT: "inhibition"
  MEASURED: 2.43
- SMILES NOTATION: "CS(=O)(=O)Nc1ccc(-c2cc(-c3ccccc3)cc(C(N)=O)c2N)cc1"
  TGT: "Phosphorylase b kinase gamma catalytic chain, liver/testis isoform (Homo sapiens)"
  REPORTED ENDPOINT: "inhibition"
  MEASURED: 1.4
- SMILES NOTATION: "CN(c1ccc(NC(=O)NCCN2CCOCC2)cc1)c1ccnc(Nc2ccc(CS(C)(=O)=O)cc2)n1"
  TGT: "Phosphorylase b kinase gamma catalytic chain, liver/testis isoform (Homo sapiens)"
  REPORTED ENDPOINT: "inhibition"
  MEASURED: 2.91
